Entries and their measured Conversion of cAMP, % of control (mean (±s.e.m.)) follow.
molecular target: human dopamine D2L receptor (Homo sapiens); construct: host or cells: CHO-K1; assay: Adenylate cyclase activity (cAMP assay), inhibition of forskolin-stimulated cAMP accumulation in CHO cells; format: cell-based; conditions: 10^−10M test compound; control = forskolin-stimulated cAMP accumulation

// known answers, use as guide
[[record]]
compound = "O=c1[nH]c2cccc(N3CCN(Cc4cccc(-c5ccccc5)c4)CC3)c2o1 [Bifeprunox]"
experimentalvalue = "95 (15) % of control"

[[record]]
compound = "O=c1[nH]c2cccc(N3CCN(Cc4cccc(-c5ccc(OS(=O)(=O)O)cc5)c4)CC3)c2o1 [4′-sulfate]"
experimentalvalue = "85 (9) % of control"

[[record]]
compound = "O=c1[nH]c2cccc(N3CCN(Cc4cccc(-c5cccc(OS(=O)(=O)O)c5)c4)CC3)c2o1 [3′-sulfate]"
experimentalvalue = "94 (5) % of control"

[[record]]
compound = "O=c1[nH]c2cccc(N3CCN(Cc4cccc(-c5cccc(O)c5)c4)CC3)c2o1 [3′-OH]"
experimentalvalue = "84 (4) % of control"


From here, focus on the item given below.
Noted for O=c1[nH]c2cccc(N3CCN(Cc4cccc(-c5ccc(O)cc5)c4)CC3)c2o1 [4′-OH] : its Conversion of cAMP, % of control (mean (±s.e.m.)) reads 90 (9) % of control

---

biological target: human dopamine D2L receptor (Homo sapiens, UniProt P14416); construct: host or cells: CHO-K1; experiment: Adenylate cyclase activity (cAMP assay), inhibition of forskolin-stimulated cAMP accumulation in CHO cells; format: cell-based; settings: 1 μM
Sequence (P14416 whole entry): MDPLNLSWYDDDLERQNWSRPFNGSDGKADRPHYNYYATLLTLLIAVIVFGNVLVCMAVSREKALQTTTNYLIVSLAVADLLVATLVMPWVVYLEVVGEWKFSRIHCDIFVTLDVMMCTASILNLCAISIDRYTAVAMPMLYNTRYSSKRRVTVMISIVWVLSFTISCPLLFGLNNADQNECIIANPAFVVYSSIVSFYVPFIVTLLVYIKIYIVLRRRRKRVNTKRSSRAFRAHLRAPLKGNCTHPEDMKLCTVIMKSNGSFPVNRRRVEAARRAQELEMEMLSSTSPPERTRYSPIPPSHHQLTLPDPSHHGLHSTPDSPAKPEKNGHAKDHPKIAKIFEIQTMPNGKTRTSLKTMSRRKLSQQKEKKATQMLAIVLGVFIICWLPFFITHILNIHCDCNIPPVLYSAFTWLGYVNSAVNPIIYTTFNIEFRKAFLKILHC
observedProperty: PS: mean % stimulation (agonism) at 1 μM (%)

[[record]]
compound = "O=c1[nH]c2cccc(N3CCN(Cc4cccc(-c5ccc(OS(=O)(=O)O)cc5)c4)CC3)c2o1 [4′-sulfate]"
experimentalvalue = 49

[[record]]
compound = "O=c1[nH]c2cccc(N3CCN(Cc4cccc(-c5ccc(O)cc5)c4)CC3)c2o1"
experimentalvalue = 55

[[record]]
compound = "O=c1[nH]c2cccc(N3CCN(Cc4cccc(-c5cccc(O)c5)c4)CC3)c2o1"
experimentalvalue = 49


I = O=c1[nH]c2cccc(N3CCN(Cc4cccc(-c5cccc(OS(=O)(=O)O)c5)c4)CC3)c2o1 [3′-sulfate]
II = O=c1[nH]c2cccc(N3CCN(Cc4cccc(-c5ccccc5)c4)CC3)c2o1
Q: Name the one with the greater PS: mean % stimulation (agonism) at 1 μM value, either I or II as given. To answer, give the label that identifies your chosen option.
Ans: I
(I: 51%, II: 31%)

---

Entries and their measured Conversion of cAMP, % of control (mean (±s.e.m.)) follow.
target: human dopamine D2L receptor (Homo sapiens); construct: host or cells: CHO-K1; assay: Adenylate cyclase activity (cAMP assay), inhibition of forskolin-stimulated cAMP accumulation in CHO cells; format: cell-based; settings: 10^−6M test compound; control = forskolin-stimulated cAMP accumulation

[[record]]
compound = "O=c1[nH]c2cccc(N3CCN(Cc4cccc(-c5ccc(OS(=O)(=O)O)cc5)c4)CC3)c2o1 [4′-sulfate]"
testedon = "human dopamine D2L receptor (Homo sapiens)"
experimentalvalue = "51 (16) % of control"

[[record]]
compound = "O=c1[nH]c2cccc(N3CCN(Cc4cccc(-c5cccc(O)c5)c4)CC3)c2o1"
testedon = "human dopamine D2L receptor (Homo sapiens)"
experimentalvalue = "51 (10) % of control"

[[record]]
compound = "O=c1[nH]c2cccc(N3CCN(Cc4cccc(-c5ccc(O)cc5)c4)CC3)c2o1"
testedon = "human dopamine D2L receptor (Homo sapiens)"
experimentalvalue = "45 (4) % of control"

[[record]]
compound = "O=c1[nH]c2cccc(N3CCN(Cc4cccc(-c5cccc(OS(=O)(=O)O)c5)c4)CC3)c2o1 [3′-sulfate]"
testedon = "human dopamine D2L receptor (Homo sapiens)"
experimentalvalue = "49 (6) % of control"


From here, focus on the item given below.
Noted for O=c1[nH]c2cccc(N3CCN(Cc4cccc(-c5ccccc5)c4)CC3)c2o1 : its Conversion of cAMP, % of control (mean (±s.e.m.)) reads 69 (10) % of control
